# PROCEDURE_DETAILS: Half life in rats
# CONDITION_INFO: rat, in vivo

COMPOUND: CN(C(=O)c1c(O)c2ccccc2n(C)c1=O)c1ccccc1 [Linomide®]
half-life [h]: 24

Source: patent EP0516725B1
